Taken from patent US20220017589A1.

TEST_SYSTEM: T1, human GFRAL (human, UniProt Q6UXV0 19-394)
T1 sequence (looked up): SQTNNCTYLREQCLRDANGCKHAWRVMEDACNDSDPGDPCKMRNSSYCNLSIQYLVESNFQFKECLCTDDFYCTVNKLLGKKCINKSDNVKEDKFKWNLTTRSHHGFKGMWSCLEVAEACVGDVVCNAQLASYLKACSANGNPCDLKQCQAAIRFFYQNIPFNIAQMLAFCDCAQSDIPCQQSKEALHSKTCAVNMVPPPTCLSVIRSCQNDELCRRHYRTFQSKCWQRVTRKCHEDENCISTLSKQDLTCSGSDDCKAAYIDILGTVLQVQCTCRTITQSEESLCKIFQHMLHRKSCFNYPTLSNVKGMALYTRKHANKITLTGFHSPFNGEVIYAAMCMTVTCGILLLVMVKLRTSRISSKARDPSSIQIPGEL
ASSAY_INFO: cell-based or functional assay

# BINDER, GDF15 activity (EC50, pM)
rows = [
    ("MLC026 (ligand, Moiety A (HOOC-(CH2)16-CO-gGlu-2XADO) on 55K of Linker (86K of fusion polypeptide)) HGEGTFTSDVSSYLEEQAAREFIAWLVRGGGGAQPGAQPGAQPGAQPGAQPGAQPGAQPGAQPGAQPGAQPGQEPGQEPGQEPGQKPGQEPGQEPGQEPGQEPGAQPGAQPARQGDHCPLGPGRCCRLHTVRASLEDLGWADWVLSPREVQVTMCIGACPSQFRAANLHAQIKTSLHRLRPDTVPAPCCVPASYNPMVLIQRTDTGVSLQTYDDLLARDCHCI", "56.1 pM"),
    ("MLC016 (ligand, Moiety A (HOOC-(CH2)16-CO-gGlu-2XADO) on 52K of Linker (83K of fusion polypeptide)) HGEGTFTSDVSSYLEEQAAREFIAWLVRGGGGQEPGAQPGQEPGAQPGQEPGAQPGQEPGAQPGQEPGAQPGQEPGAQPGAQKGAQPGAQPGAQPGAQPGAQPGAQPGAQPARQGDHCPLGPGRCCRLHTVRASLEDLGWADWVLSPREVQVTMCIGACPSQFRAANLHAQIKTSLHRLRPDTVPAPCCVPASYNPMVLIQRTDTGVSLQTYDDLLARDCHCI", "110 pM"),
    ("MLC097 (ligand) EGTFTSDVSSYLEEQAAKEFIAWLVRGGGGQEPGAQPGQEPGAQPGQEPGAQPGQEPGAQPGQEPGAQPGQEPGAQPGAQPGAQPGAQPGAQPGAQPGAQPGAQPGAQPARQGDHCPLGPGRCCRLHTVRASLEDLGWADWVLSPREVQVTMCIGACPSQFRAANLHAQIKTSLHRLKPDTVPAPCCVPASYNPMVLIQKTDTGVSLQTYDDLLAKDCHCI", "32.9 pM"),
]
